The origin of these recorded values is patent US20260285866A1.

# study-system: Human TRPML1 (Homo sapiens, UniProt Q9GZU1, L15A/L16A/L577A/L578A)
# Sequence (Q9GZU1 whole entry L15A/L16A/L577A/L578A): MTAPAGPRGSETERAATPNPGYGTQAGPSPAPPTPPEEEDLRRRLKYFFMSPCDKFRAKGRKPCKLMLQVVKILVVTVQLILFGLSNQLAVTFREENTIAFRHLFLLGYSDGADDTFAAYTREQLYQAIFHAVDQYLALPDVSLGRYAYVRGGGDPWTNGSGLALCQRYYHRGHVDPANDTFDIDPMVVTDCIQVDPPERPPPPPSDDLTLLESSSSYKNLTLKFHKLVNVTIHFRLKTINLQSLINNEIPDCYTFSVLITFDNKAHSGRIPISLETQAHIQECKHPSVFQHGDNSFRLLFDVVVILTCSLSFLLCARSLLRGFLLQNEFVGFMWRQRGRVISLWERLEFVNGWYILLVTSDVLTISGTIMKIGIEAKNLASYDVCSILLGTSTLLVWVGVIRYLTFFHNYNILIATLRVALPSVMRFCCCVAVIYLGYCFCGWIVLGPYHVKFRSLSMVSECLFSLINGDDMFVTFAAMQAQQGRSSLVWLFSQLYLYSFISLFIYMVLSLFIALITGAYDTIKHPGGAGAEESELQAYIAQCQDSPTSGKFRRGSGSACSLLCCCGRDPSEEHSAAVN
# procedure-details: Fluorescent TRPML1 assay (Fluo4-AM, HEK-293 Trex cells expressing hTRPML1)
# condition: fluorescent calcium assay, doxycycline-induced hTRPML1
pEC50: −log10 of the molar value.
Readings of pEC50 for the listed compounds

Some compounds with recorded pEC50:
compound: C[C@@H]1CN(c2ncnc3c2c(-c2ccncc2)cn3-c2cc(C#N)ccn2)[C@@H](C)CN1C(=O)C1(O)CCCCC1 [Compound 151]
pEC50: > 7.00

compound: C[C@@H]1CN(c2ncnc3c2c(-c2ccncc2)cn3-c2cc(C#N)ccn2)[C@@H](C)CN1C(=O)C1(O)CCCC1 [Compound 150]
pEC50: > 7.00

compound: C[C@@H]1CN(c2nccc3c2c(-c2ccncc2)cn3-c2cc(C#N)ccn2)[C@@H](C)CN1C(=O)C(C)(C)O [Compound 140]
pEC50: 5.70 to 6.30

compound: C[C@@H]1CN(c2ncnc3c2c(-c2ccns2)cn3-c2cc(C#N)ccn2)[C@@H](C)CN1C(=O)C(C)(C)O [Compound 153]
pEC50: 5.70 to 6.30

compound: C[C@@H]1CN(c2ncnc3c2c(-c2ccccc2)cn3-c2cc(C#N)ccn2)[C@@H](C)CN1C(=O)C1(O)COC1 [Compound 120]
pEC50: 6.30 to 7.00

Data request: // fetch Human TRPML1 (Homo sapiens, UniProt Q9GZU1, L15A/L16A/L577A/L578A) pEC50 for C[C@@H]1CN(c2nccc3c2c(-c2ccncc2)cn3-c2cc(F)ccn2)[C@@H](C)CN1C(=O)C(C)(C)O [Compound 141]
Data returned: < 5.70

Data request: // fetch Human TRPML1 (Homo sapiens, UniProt Q9GZU1, L15A/L16A/L577A/L578A) pEC50 for C[C@@H]1CN(c2ncnc3c2c(C2CC2)cn3-c2cc(C#N)ccn2)[C@@H](C)CN1C(=O)C(C)(C)O [Compound 105]
Data returned: 5.70 to 6.30
